The measurements presented in this section are drawn from patent US20200277373A1.

Target: T1, hTREM2 (Homo sapiens, UniProt Q9NZC2)
T1 construct: The ecto domain (residues 19-172) of TREM2 (UniProtKB—Q9NZC2); secretion signal of mouse Ig kappa chain V-III (P01661 aa 1-20) (N); made in house; host or cells: Expi293F
T1 sequence (Q9NZC2 19-172): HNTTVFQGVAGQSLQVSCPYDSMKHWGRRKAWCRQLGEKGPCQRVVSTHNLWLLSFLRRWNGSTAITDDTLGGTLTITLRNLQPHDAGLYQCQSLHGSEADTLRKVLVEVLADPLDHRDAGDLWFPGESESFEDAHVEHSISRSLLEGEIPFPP
Experiment: Octet binning (competition with R&D antibody on biotinylated TREM2-His)
Assay type: binding
Conditions: epitope bin, 100 nM
Quick list: Bin by Octet per entry.
Keep it simple and answer with nothing but the number.

[
  {
    "molecule": "42E8.H1: anti-TREM2 antibody clone; VH SEQ ID NO:20, VL SEQ ID NO:31 (antibody, V domains shown) VH: DVQLQESGPGLVKPSQSLSLTCTVTGYSITSDYAWNWIRQFPGNKLEWMGYINYSGRTIYNPSLKSRISITRDTSKNHFFLQLISVTTEDTATYYCARWNGNYGFAYWGQGTLVTVSA VL: DVVMTQNPLSLPVSLGDQASISCRSSQSLVHINGNTYLHWYLQKPGQSPKLLIYKVSNRFSGVPDRFSGSGSGTDFTLKISRVEAEDLGVYFCSQTTHALFTFGSGTKLEIK",
    "Bin by Octet": 1
  },
  {
    "molecule": "3D3.A1: anti-TREM2 antibody clone; VH SEQ ID NO:18, VL SEQ ID NO:29 (antibody, V domains shown) VH: EVQLQQSGPELVKPGASVKISCKTSGYTLSEYTMHWVIQSHGKSLEWIGGVIPNSGGTSYNQKFRDKASLTVDKSSSTAYLELRSLTSEDSAVYYCARGDDSYRRGYALDYWGQGTSVTVSS VL: DIVMSQSPSSLAVSVGEKVTMSCKSSQSLLYSSNQKSYLAWYQQKPGQSPKLLIYWASTRESGVPDRFRGSGSGTDFTLTISSVKAEDLAVYYCQQYFSYPPTFGGGTKLEIK",
    "Bin by Octet": 3
  }
]

--- query ---
Request: Query (molecule): 24B4.A1: anti-TREM2 antibody clone; VH SEQ ID NO:17, VL SEQ ID NO:28 (antibody, V domains shown) VH: QVHLQQSGSELRSPGSSVKLSCKDFDSEVFPISYMSWIRQKPGHGFEWIGDILPSIGGRIYGVKFEDRATLDADTVSNTAYLELNSLTSEDSAIYYCARKDYGSLAYWGQGTLVTVSA VL: DVVMTQTPLSLPVSLGDQASISCRSSQSLVHINGNTYLQWFLQKPGQSPKLLIYKVSNRFSGVPDRFSGSGSGTAFTLKISRVEAEDLGVYFCSQSTHVPYTFGGGTKLEIK ; field requested: Bin by Octet
Result: 1
